property.label: melting point

Could you please provide reported melting point for O=C1C(Cl)C(CCl)CN1c1cccc(Cl)c1 (stereo not given) ? Thanks!
93 to 94 °C

Could you please provide reported melting point for COc1ccc(C(=O)Nc2ccc(F)c(F)c2)cc1NCc1cccc(C(=O)O)c1 ? Thanks!
240 to 243 °C

Could you please provide reported melting point for O=C(NO)[C@H](CNS(=O)(=O)c1ccc(OCc2ccc(Cl)c(Cl)c2)cc1)N1CCCCC1 ? Thanks!
166 °C

Could you please provide reported melting point for O=C(Nc1ccc(-n2nc(C(F)(F)F)cc2C(F)(F)F)cc1)c1ccccc1O ? Thanks!
173 to 175 °C

---

Reported melting point by item:

Study these solved cases before continuing.
• CC(=O)On1c(=N)n[n+]([O-])c2ccccc21 = 194 to 196 °C
• COc1c(C2CCN(CCCCNC(=O)c3ccc(-c4ccc(Cl)cc4)cc3)CC2)ccc2ccccc12 = 197 °C
• CC(C)(C)OC(=O)Nc1cc(OC(C)(C)C)c(I)cc1[N+](=O)[O-] = 94 °C
• COc1cc2ncnc(NC3=CC(=O)C(c4ccccc4)=CC3=O)c2cc1OC = 200 to 205 °C
• O=C(O)COc1ccccc1N1CCN(c2ccncc2)CC1 = 294 to 296 °C

Could you please provide reported melting point for COc1ccc2c(Cc3c(Cl)cncc3Cl)nn(CC(=O)NO)c(=O)c2c1 ? Thanks!
256 to 258 °C

Could you please provide reported melting point for Cc1cc(C#N)cc(C(=O)Nc2ccnc(F)c2)n1 ? Thanks!
246 °C

Could you please provide reported melting point for C#CCSc1ccncc1 ? Thanks!
55 to 56 °C

Could you please provide reported melting point for CC=CCn1c(N(C(C)=O)c2cc(C)cc(C)c2)c(C(C)C)c(=O)[nH]c1=O ? Thanks!
103 to 105 °C

Could you please provide reported melting point for CC(C)SC(=O)N1CCN(c2ccc3ncc(Br)n3n2)CC1 ? Thanks!
186 to 187 °C

Could you please provide reported melting point for O=c1[nH]c2ccc([N+](=O)[O-])cc2s1 ? Thanks!
252 °C

Could you please provide reported melting point for CCOC(=O)c1ccc(NCCOc2cccc3c2CCCC3)cc1 ? Thanks!
133 to 135 °C

Could you please provide reported melting point for COc1ccc(C=CC(=O)C2C(=O)C=C(C)OC2=O)cc1 (stereo unspecified) ? Thanks!
205 to 207 °C

Could you please provide reported melting point for O=C1NC2(CCCCC2)c2ccccc21 ? Thanks!
232 to 234 °C

Could you please provide reported melting point for COc1ccc(Cn2c(=S)[nH]c(=O)c3[nH]c(C(C)C)nc32)cc1OCc1ccccc1 ? Thanks!
280 to 281 °C

Could you please provide reported melting point for O=C(O)c1ccc(-c2ccc(NC(=O)C(F)(F)F)cc2)[nH]c1=O ? Thanks!
> 270 °C

Could you please provide reported melting point for Cc1ccc(C2c3c(C)c(N)c(C)c(C)c3OC2(C)C)cc1 (stereo unspecified) ? Thanks!
91 to 92 °C

Could you please provide reported melting point for O=C(Cc1ccc2c(c1)Cc1c-2[nH]c(=O)c2nccn12)NCc1ccccc1 ? Thanks!
> 260 °C

Could you please provide reported melting point for CCCCc1nc2cccc(CC(=O)O)c2n1Cc1ccc(-c2ccccc2-c2nnn[nH]2)cc1 ? Thanks!
170 to 171 °C

Could you please provide reported melting point for CCC(=O)N[C@@H](C)C(=O)N1CCC[C@H]1C(=O)NC ? Thanks!
163 to 165 °C

Could you please provide reported melting point for COc1cc(C=C[N+](=O)[O-])cc(OC)c1OC ? Thanks!
116 to 118 °C
